Test system: Oseltamivir resistant strain virus
run.description: microbe, parasite or virus in culture
Type: cell-based, influenza virus
molecules and their reported SI value

Record Cc1onc(-c2cccc(F)c2)c1C(=O)N1CCN(c2ccccc2O)CC1 , field SI value: 100.032 to 200.321

Record CCOC(=O)C1=C[C@@H](OC(CC)CC)[C@H](NC(C)=O)[C@@H](N)C1 [Oseltamivir, reference compound] , field SI value: 12.5 to 25

Record COc1cccc(N2CCN(C(=O)c3c(-c4ccccc4C(F)(F)F)noc3C)CC2)c1 , field SI value: 3276.59 to 9812.50

Record COc1cccc(N2CCN(C(=O)c3c(-c4ccccc4Cl)noc3C)CC2)c1 , field SI value: 3221.649 to 13020.833

Record Cc1onc(-c2ccccc2OC(F)(F)F)c1C(=O)N1CCN(c2ccc(Cl)c(Cl)c2)CC1 , field SI value: 1602.564 to 3205.128

Record COc1cccc(N2CCN(C(=O)c3c(-c4cccc(F)c4)noc3C)CC2)c1 , field SI value: 50.016 to 100.032

Record Cc1onc(-c2cccc(F)c2)c1C(=O)N1CCN(c2ccc(Cl)c(Cl)c2)CC1 , field SI value: 1471.794 to 3205.128

Record CCOC(=O)C1CCN(C(=O)c2c(-c3ccccc3OC(F)(F)F)noc2N)CC1 , field SI value: 12.5

Record COc1ccccc1N1CCN(C(=O)c2c(-c3ccccc3C(F)(F)F)noc2C)CC1 , field SI value: 1.563 to 3.125

These entries and their values trace back to patent US9132126B2.
